Molecular target: tankyrase 1 (TNKS 1) (Homo sapiens)
Construct: 1,024-1,327aa; made in house; host or cells: cell-free protein synthesis system
Sequence (O95271 1024-1327): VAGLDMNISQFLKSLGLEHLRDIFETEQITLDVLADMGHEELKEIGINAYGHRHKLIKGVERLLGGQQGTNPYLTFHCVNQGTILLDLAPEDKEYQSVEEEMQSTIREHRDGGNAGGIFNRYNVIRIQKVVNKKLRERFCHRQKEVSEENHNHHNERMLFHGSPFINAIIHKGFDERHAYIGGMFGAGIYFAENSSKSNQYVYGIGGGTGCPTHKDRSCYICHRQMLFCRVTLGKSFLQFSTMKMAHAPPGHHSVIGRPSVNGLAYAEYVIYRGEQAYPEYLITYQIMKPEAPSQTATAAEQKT
Test: Tankyrase inhibitory activity test (ELISA, self-polyADP ribosylation), tankyrase 1
Assay type: biochemical
Details: ELISA, self-polyADP ribosylation; class symbols; read-out: TNKS1 (inhibitory activity against tankyrase 1, IC50 value)
pIC50: −log10 of the molar value.
# pIC50 listing for each entry below

Answered examples (3):
{"COMPOUND": "CN1CCCc2c1nc(N1CCC3(CC1)OC(=O)c1cc(N4CCN(CC(C)(C)O)CC4)cc(F)c13)[nH]c2=O", "pIC50": "> 7.70"}
{"COMPOUND": "O=C1N(CC2CCCO2)c2cccc(F)c2C12CCN(c1nc3c(c(=O)[nH]1)CCCN3)CC2 (stereo not shown)", "pIC50": "6.70 to 7.70"}
{"COMPOUND": "COC(=O)N1CCN(c2cc(F)c3c(c2)N(C)C(=O)C32CCN(c3nc4c(c(=O)[nH]3)CCCN4C)CC2)CC1", "pIC50": "6.70 to 7.70"}

Now look at this one.
Request: So what does the record say about pIC50 for CN1CCCc2c1nc(N1CCC3(CC1)C(=O)N(C)c1cc(N4CC(C(=O)O)C4)cc(F)c13)[nH]c2=O ?
Result: > 7.70
